Assign percent response of DMSO control to each entry below.
# ASSAY: TOR pathway RTG branch CIT2 reporter changes – S. cerevisiae, GFP fusion, multiplex flow cytometry, primary screen (AID 1870);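 further: barcoded CIT2-GFP strain pooled with four other GFP strains with rapamycin as positive control; median GFP fluorescence per well over plate mean of DMSO wells so 100% = DMSO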
# EXPERIMENTAL_CONDITIONS: S. cerevisiae CIT2-GFP expression, 3 h, at 10 µM, stronger effect = higher value
Answers are plain numbers, in %.

COc1ccc(CC(=O)Nc2cccc(C(=O)Nc3ccccc3C(=O)O)c2)cc1OC | 96.4

For every item below, please supply its percent response of DMSO control.
1. CC(=O)O[C@]1(C(C)=O)CC[C@H]2[C@@H]3C[C@H](C)C4=CC(=O)CC[C@]4(C)[C@H]3CC[C@@]21C
2. CCN(CC)CCOC(=O)C(c1ccccc1)c1ccccc1
3. CCN(CC)C(=O)N1CCN(C)CC1
4. COc1ccc2c(c1)[N+](C)(C)C(C)(C)C=C2C
5. CCN(CCCc1ccccc1)CCCc1ccccc1
6. CC(C)CCNC(=O)[C@H](CC(C)C)NC(=O)[C@H]1O[C@@H]1C(=O)O

1: 90.8; 2: 91.9; 3: 101; 4: 111; 5: 102; 6: 112

Please go through the list and note percent response of DMSO control for each molecule.
1. CCOc1ccc(NC2OC(C)C(O)C(O)C2O)c([N+](=O)[O-])c1 (stereo unspecified)
2. COc1cc(/C=C/C(=O)O)cc(S(=O)(=O)NCCCO)c1OC
3. Cc1nc(-c2coc3c(CN(C)C)c(O)ccc3c2=O)cs1
4. C#C[C@]1(O)CC[C@H]2[C@@H]3CCc4cc(OC)ccc4[C@H]3CC[C@@]21C

[97.8, 91, 104, 102]

Each of the following entries comes with a recorded value; kindly state percent response of DMSO control for each.
1. CCn1c(SCC(=O)c2ccccc2)nc2ccccc2c1=O
2. CC[C@H](C)C(=O)O[C@H]1C[C@@H](C)C=C2C=C[C@H](C)[C@H](CC[C@@H]3C[C@@H](O)CC(=O)O3)[C@H]21
3. O=C(Nc1ccc(C(=O)NC2CCCCC2)cc1)c1cccnc1
4. Cc1cc(O)c(C(C)C)cc1C1(c2cc(C(C)C)c(O)cc2C)OC(=O)c2ccccc21
5. CO[C@H]1C=CO[C@@]2(C)Oc3c(C)c(O)c4c(O)c(c(C=NN5CCN(C)CC5)c(O)c4c3C2=O)NC(=O)C(C)=CC=C[C@H](C)[C@H](O)[C@@H](C)[C@@H](O)[C@@H](C)[C@H](OC(C)=O)[C@@H]1C

1: 99.7; 2: 103; 3: 107; 4: 104; 5: 93.9

---

# ASSAY: cytosolic pH regulators acting via V-ATPase – S. cerevisiae, pHLuorin, HTS validation (AID 504600);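 further: plate controls were DMSO for no effect and reference compound for full effect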
# EXPERIMENTAL_CONDITIONS: V-ATPase proton transport, at 10 µM
The source made the active and inactive calls. Rule as the data show it: active = response above about 15%; inactive = the rest.
Your reply should match one of these outcome classes. active, inactive

Examples from the recorded data:
COc1cc2cc(C)nc(Cc3cccc4ccccc34)c2cc1OC | inactive
COc1ccc(C2C(C(=O)c3ccco3)=C(O)C(=O)N2CC2CCCO2)cc1 (stereo unspecified) | inactive
COc1ccc(NC(=O)C2OC3OC(C)(C)OC3C3OC(C)(C)OC23)cc1 (stereo unspecified) | inactive
CC1(C)CC(=O)C2=C(C1)c1c(ccc3ccccc13)NC2c1ccco1 (stereo unspecified) | inactive

Can you look up the reported call for COc1ccc2oc(C)c(C(N)=O)c2c1 for me? inactive

Record request — test call for CC(=O)[C@@]1(O)CC[C@H]2[C@@H]3C[C@H](C)C4=CC(=O)C=C[C@]4(C)[C@@]3(F)[C@@H](O)C[C@@]21C inactive

Which result was noted for this compound in the test: CC(C)=CCCC1=CCC2C(=O)NNC(=O)C2C1 (stereo unspecified) active

I'd appreciate the recorded outcome for COC(=O)c1cc(Br)c(=O)n(CCc2ccc(O)cc2)c1 from this test. inactive
